Data credit: PubChem BioAssay

assay: basal 3T3-L1 adipocyte mitochondrial potential changes, profiling panel, cell-based, JC-1 fluorescence, 3T3-L1 adipocytes, 24 h, 100 nL compound (AID 1168); conditions: JC-1 mitochondrial fluorescence, higher = more signal, called active from +8 up or from −8 down; note: test concentration not given here
// label = 1.0 if z-score is not less than -0.6, otherwise 0.0

Below, 2 compounds whose answers are already recorded.
C=C(/C(=C/C[C@@H](OC(=O)c1ccncc1)c1ccc(OCCO)cc1)c1cnc2ccccc2c1)C(C)C
0.0
CO[C@@H]1COC(=O)CCC[C@@H](C)[C@H](OC)COC(=O)CCC[C@H]1C
0.0

// switching to the query compound
Lookup: Given CN1C(=O)C2C=CC(C(O)c3ccc(Br)cc3)N(N(c3ccccc3)c3ccccc3)C2C1=O (stereo unspecified) , state whether its z-score is at least -0.6.
Found: 0.0
